Each recorded value in this set is attributed to ChEMBL document CHEMBL1140596.

- target: Kinesin-like protein KIF11 (Homo sapiens, UniProt P52732)
- Sequence (P52732 whole entry): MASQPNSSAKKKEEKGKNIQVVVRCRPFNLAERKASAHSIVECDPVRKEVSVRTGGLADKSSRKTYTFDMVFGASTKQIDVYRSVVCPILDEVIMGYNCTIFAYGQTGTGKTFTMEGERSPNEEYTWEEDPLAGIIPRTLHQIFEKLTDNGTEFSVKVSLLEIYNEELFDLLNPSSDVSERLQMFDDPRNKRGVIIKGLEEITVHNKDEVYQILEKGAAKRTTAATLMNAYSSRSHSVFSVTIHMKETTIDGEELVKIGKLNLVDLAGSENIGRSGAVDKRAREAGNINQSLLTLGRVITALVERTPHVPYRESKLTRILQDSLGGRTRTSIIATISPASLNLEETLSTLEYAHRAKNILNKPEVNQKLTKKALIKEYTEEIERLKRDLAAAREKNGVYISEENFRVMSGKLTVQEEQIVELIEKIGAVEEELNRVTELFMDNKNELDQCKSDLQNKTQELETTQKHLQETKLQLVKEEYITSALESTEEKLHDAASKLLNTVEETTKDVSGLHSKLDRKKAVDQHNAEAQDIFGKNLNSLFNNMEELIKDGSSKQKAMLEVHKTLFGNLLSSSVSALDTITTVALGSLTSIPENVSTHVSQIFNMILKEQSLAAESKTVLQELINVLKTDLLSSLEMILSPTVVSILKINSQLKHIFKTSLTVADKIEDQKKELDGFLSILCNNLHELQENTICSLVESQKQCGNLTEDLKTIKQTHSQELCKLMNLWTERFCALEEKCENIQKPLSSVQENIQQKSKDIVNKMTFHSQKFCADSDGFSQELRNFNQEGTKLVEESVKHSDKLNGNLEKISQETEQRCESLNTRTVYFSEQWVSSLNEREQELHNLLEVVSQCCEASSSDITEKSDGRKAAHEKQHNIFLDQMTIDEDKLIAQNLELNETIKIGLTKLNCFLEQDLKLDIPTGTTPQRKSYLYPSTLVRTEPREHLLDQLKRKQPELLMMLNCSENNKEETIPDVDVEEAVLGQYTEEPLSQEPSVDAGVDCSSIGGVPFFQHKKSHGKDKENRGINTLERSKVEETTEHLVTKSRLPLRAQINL
Binary call on IC50 with cut-off 20 µM: strictly below means rule met, and equality or higher means rule not met.

Incoming: Please indicate whether the reported IC50 of OC1CC2CCC(C1)N2CCCN1c2ccccc2Sc2ccc(Cl)cc21 (stereo not given) is strictly below 20 µM.
Outgoing: rule met

Next:
Incoming: Please indicate whether the reported IC50 of CC(C)(O)C1C[C@@H](O)[C@]2(C)[C@H](CC[C@@]3(C)[C@H]2CC[C@H]2Cc4c([nH]c5ccccc45)[C@@]23C)O1 (stereo not given in full) is strictly below 20 µM.
Outgoing: rule met

Incoming: Same for Cc1ccc2c(c1C)CNCC2c1ccccc1 (stereo not given)
Outgoing: rule met

Incoming: Same for CN1Cc2c(ccc3c2CCO3)[C@@H](c2ccccc2)C1
Outgoing: rule met

Incoming: Same for Cc1cc2c(C(C)C)c(O)c(O)c(C=O)c2c(O)c1-c1c(C)cc2c(C(C)C)c(O)c(O)c(C=O)c2c1O
Outgoing: rule not met
